activity at 0.01 µM by entry:
biological target: CDK4 (Homo sapiens, UniProt P11802+Q16531); assay: HiBiT detection of HiBiT-tagged CDK4 protein level in MCF7 cells, 16 hours (Table 8); format: cell-based; parameters: expressed in transfected cells; host or cells: MCF7; details: 10 nM, MCF7 cells stably expressing HiBiT tagged target proteins, read-out: % CDK4 Relative Level (10 nM)
Sequence (P11802 whole entry): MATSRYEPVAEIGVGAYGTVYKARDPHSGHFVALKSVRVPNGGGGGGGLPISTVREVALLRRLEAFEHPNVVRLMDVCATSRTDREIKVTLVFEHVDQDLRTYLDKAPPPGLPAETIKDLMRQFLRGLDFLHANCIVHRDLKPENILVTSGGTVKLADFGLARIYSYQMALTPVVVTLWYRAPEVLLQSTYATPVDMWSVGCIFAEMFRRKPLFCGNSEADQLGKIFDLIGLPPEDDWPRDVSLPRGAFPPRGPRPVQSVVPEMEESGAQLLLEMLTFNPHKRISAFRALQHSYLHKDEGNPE
Sequence (P24385 whole entry partner): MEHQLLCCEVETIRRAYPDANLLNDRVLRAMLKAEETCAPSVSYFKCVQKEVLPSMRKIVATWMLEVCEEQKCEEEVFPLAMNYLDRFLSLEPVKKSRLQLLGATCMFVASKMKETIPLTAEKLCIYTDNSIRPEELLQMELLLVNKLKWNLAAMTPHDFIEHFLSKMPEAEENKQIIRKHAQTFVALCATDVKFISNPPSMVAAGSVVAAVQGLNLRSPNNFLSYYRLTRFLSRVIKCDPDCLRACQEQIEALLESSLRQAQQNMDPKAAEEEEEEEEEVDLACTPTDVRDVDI
Sequence (Q16531 2-1140 limits assumed): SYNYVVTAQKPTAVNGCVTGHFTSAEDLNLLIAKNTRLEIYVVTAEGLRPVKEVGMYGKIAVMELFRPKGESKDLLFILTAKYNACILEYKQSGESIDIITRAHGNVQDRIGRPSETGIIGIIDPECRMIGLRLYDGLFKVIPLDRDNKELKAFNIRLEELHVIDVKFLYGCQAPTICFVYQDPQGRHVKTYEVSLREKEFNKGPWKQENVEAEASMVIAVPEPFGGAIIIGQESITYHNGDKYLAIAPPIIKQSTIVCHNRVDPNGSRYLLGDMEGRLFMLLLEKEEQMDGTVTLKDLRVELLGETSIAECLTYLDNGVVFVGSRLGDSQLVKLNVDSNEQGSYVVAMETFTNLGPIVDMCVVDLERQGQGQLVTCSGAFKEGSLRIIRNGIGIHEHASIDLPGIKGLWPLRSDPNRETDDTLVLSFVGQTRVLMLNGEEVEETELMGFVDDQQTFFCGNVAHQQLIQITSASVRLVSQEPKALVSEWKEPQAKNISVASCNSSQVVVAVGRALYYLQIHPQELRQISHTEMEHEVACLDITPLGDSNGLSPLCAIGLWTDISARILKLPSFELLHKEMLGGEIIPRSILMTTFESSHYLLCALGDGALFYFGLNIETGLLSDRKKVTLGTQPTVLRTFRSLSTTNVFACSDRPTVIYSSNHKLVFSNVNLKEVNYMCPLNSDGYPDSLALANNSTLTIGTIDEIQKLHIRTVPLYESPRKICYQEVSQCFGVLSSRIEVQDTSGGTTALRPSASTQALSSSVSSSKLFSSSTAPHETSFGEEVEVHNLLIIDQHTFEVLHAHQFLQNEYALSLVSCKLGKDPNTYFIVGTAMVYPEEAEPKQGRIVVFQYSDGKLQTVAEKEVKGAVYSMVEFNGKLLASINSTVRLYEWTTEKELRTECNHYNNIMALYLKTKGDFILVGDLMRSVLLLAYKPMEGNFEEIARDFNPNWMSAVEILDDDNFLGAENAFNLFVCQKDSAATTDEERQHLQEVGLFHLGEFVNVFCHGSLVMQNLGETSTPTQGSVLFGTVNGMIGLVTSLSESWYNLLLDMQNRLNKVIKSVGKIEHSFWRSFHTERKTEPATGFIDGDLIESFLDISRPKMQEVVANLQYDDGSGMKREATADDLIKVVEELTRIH

>  <compound>
CCc1ccc(C(=O)Nc2ccc(N(C)C)nn2)c(NC2CC3(CC(NC(=O)CN4CCN(Cc5ccc(Nc6ncc7c(C)c(C(C)=O)c(=O)n(C8CCCC8)c7n6)nc5)CC4)C3)C2)n1 (stereo not drawn)

>  <activity at 0.01 µM>
55 to 85%

$$$$
>  <compound>
CC(=O)c1c(C)c2cnc(Nc3ccc(CN4CCN(CC(=O)NC5CC6(C5)CC(Nc5nc(NC(C)C)ccc5C(=O)Nc5ccc(N(C)C)nn5)C6)CC4)cn3)nc2n(C2CCCC2)c1=O (stereo not drawn)

>  <activity at 0.01 µM>
55 to 85%

$$$$
>  <compound>
CNc1ccc(C(=O)Nc2ccc(N(C)C)nn2)c(NCCCCCCCC(=O)N2CCN(c3ccc(Nc4ncc(F)c(-c5cc(F)c6nc(C)n(C(C)C)c6c5)n4)nc3)CC2)n1

>  <activity at 0.01 µM>
> 85%

$$$$
>  <compound>
CNc1ccc(C(=O)Nc2ccc(N(C)C)nn2)c(NCCOCCC(=O)NC2CCC(Nc3ncc4ccc(=O)n(C5CCCC5)c4n3)CC2)n1 (stereo not drawn)

>  <activity at 0.01 µM>
> 85%

$$$$
>  <compound>
CC(=O)c1c(C)c2cnc(Nc3ccc(C(C)N4CCN(CC(=O)NC5CC6(C5)CC(Nc5nc(NC(C)C)ccc5C(=O)Nc5ccc(N(C)C)nn5)C6)CC4)cn3)nc2n(C2CCCC2)c1=O (stereo not drawn)

>  <activity at 0.01 µM>
55 to 85%

$$$$
>  <compound>
CC(=O)c1c(C)c2cnc(Nc3ccc(N4CCN(CCC(=O)NC56CC(Nc7nc(NC(C)C)ccc7C(=O)Nc7ccc(N(C)C)nn7)(C5)C6)CC4)cn3)nc2n(C2CCCC2)c1=O

>  <activity at 0.01 µM>
55 to 85%

$$$$
>  <compound>
CC(=O)c1c(C)c2cnc(Nc3ccc(N4CCN(C5CCN(C(=O)C67CC(Nc8nc(NC(C)C)ccc8C(=O)Nc8cc(C)on8)(C6)C7)C5)CC4)cn3)nc2n(C2CCCC2)c1=O (stereo not drawn)

>  <activity at 0.01 µM>
55 to 85%

$$$$
>  <compound>
CNc1ccc(C(=O)Nc2ccc(N(C)C)nn2)c(NCCCCCCCC(=O)N2CCN(c3ccc(Nc4ncc5cc(C(=O)N(C)C)n(C6CCCC6)c5n4)nc3)CC2)n1

>  <activity at 0.01 µM>
55 to 85%

$$$$
>  <compound>
CNc1ccc(C(=O)Nc2ccc(N(C)C)nn2)c(NCCCC(=O)N2CCN(c3ccc(Nc4ncc5cc6n(c5n4)C4(CCCCC4)CNC6=O)nc3)CC2)n1

>  <activity at 0.01 µM>
55 to 85%

$$$$
>  <compound>
CC(=O)c1c(C)c2cnc(Nc3ccc(CN4CCN(CC(=O)NC5CC6(C5)CC(Nc5nc(NC(C)C)ccc5C(=O)Nc5cc7n(n5)CCC7)C6)CC4)cn3)nc2n(C2CCCC2)c1=O (stereo not drawn)

>  <activity at 0.01 µM>
55 to 85%

$$$$
>  <compound>
CC(=O)c1c(C)c2cnc(Nc3ccc(N4CCN(C5CCN(C(=O)[C@H]6CC[C@H](Nc7nc(C8CC8)ccc7C(=O)Nc7ccc(N(C)C)nn7)CC6)C5)CC4)cn3)nc2n(C2CCCC2)c1=O (stereo partly drawn)

>  <activity at 0.01 µM>
55 to 85%

$$$$
>  <compound>
CNc1ccc(C(=O)Nc2ccc(N(C)C)nn2)c(NCCCNC(=O)CN2CCN(c3ccc(Nc4ncc(F)c(-c5cc(F)c6nc(C)n(C(C)C)c6c5)n4)nc3)CC2)n1

>  <activity at 0.01 µM>
> 85%

$$$$
>  <compound>
CNc1ccc(C(=O)Nc2ccc(N(C)C)nn2)c(NCCC(=O)NC2CCC3(CC2)CC(Nc2ncc4ccc(=O)n(C5CCCC5)c4n2)C3)n1 (stereo not drawn)

>  <activity at 0.01 µM>
> 85%

$$$$
>  <compound>
[2H]C([2H])([2H])Nc1ccc(C(=O)Nc2cccc(OC)n2)c(NC2CC3(C2)CN(C(=O)CC(N2CCN(c4ccc(Nc5ncc6c(C)c(C(C)=O)c(=O)n(C7CCCC7)c6n5)nc4)CC2)C(F)(F)F)C3)n1 (stereo not drawn)

>  <activity at 0.01 µM>
55 to 85%

$$$$
>  <compound>
CC(=O)c1c(C)c2cnc(Nc3ccc(N4CCN(C5CCN(C(=O)C67CC(Nc8nc(NC(C)C)ccc8C(=O)Nc8cc(C)n(C)n8)(C6)C7)C5)CC4)cn3)nc2n(C2CCCC2)c1=O (stereo not drawn)

>  <activity at 0.01 µM>
55 to 85%

$$$$
>  <compound>
CC(=O)c1c(C)c2cnc(Nc3ccc(CN4CCN(CC(=O)NC5CC6(C5)CC(Nc5nc(NC(C)C)ccc5C(=O)Nc5cn(C)c(C7CC7)n5)C6)CC4)cn3)nc2n(C2CCCC2)c1=O (stereo not drawn)

>  <activity at 0.01 µM>
55 to 85%

$$$$
>  <compound>
CC(=O)c1c(C)c2cnc(Nc3ccc(N4CCC5(CCN(CC(=O)N6CC7(CC(Nc8nc(NC(C)C)ccc8C(=O)Nc8cc9n(n8)CCC9)C7)C6)C5)C4)cn3)nc2n(C2CCCC2)c1=O (stereo not drawn)

>  <activity at 0.01 µM>
> 85%

$$$$
>  <compound>
CC(=O)c1c(C)c2cnc(Nc3ccc(N4CCN(CCC(=O)N5CCC(Nc6nc(NC(C)C)ccc6C(=O)Nc6ccc(N(C)C)nn6)CC5)CC4)cn3)nc2n(C2CCCC2)c1=O

>  <activity at 0.01 µM>
55 to 85%

$$$$
>  <compound>
CNc1ccc(C(=O)Nc2ccc(N(C)C)nn2)c(NCCOCCC(=O)N2CCN(c3ccc(Nc4ncc5cc(C(=O)N(C)C)n(C6CCCC6)c5n4)nc3)CC2)n1

>  <activity at 0.01 µM>
55 to 85%

$$$$
>  <compound>
CNc1ccc(C(=O)Nc2ccc(N(C)C)nn2)c(NCCOCCC(=O)N2CCN(c3ccc(Nc4ncc(F)c(-c5cc(F)c6nc(C)n(C(C)C)c6c5)n4)nc3)CC2)n1

>  <activity at 0.01 µM>
> 85%

$$$$
>  <compound>
CC(=O)c1c(C)c2cnc(Nc3ccc(N4CCC(N(C)CC(=O)N5CC6(CC(Nc7nc(NC(C)C)ccc7C(=O)Nc7ccc(N(C)C)nn7)C6)C5)CC4)cn3)nc2n(C2CCCC2)c1=O

>  <activity at 0.01 µM>
55 to 85%

$$$$
